test system: HL-1; assay: relative cell viability (CellTiter-Glo) vs DMSO control (% of DMSO control); higher = more viable cells; conditions: oxygen condition: normoxia 72 h; 40 nM
Counter-ions that a name gives are not always drawn.
Rule for this label: True means relative cell viability is less than 100; False means relative cell viability is at least 100.

INSERT INTO results (compound, label_value) VALUES
  ('CC[C@@H](CO)NCCN[C@@H](CC)CO [Ethambutol HCl]', 'True');

Consider the record given below.
Challenge: # strict comparison: is reported relative cell viability < 100? input = CC(=O)O[C@@]12CO[C@@H]1C[C@H](O)[C@@]1(C)C(=O)[C@H](O)C3=C(C)[C@@H](OC(=O)[C@H](O)[C@@H](NC(=O)OC(C)(C)C)c4ccccc4)C[C@@](O)([C@@H](OC(=O)c4ccccc4)[C@H]21)C3(C)C [Docetaxel]
Response given: True

----------
tested on: HL-1; assay: relative cell viability (CellTiter-Glo) vs DMSO control (% of DMSO control); higher = more viable cells; conditions: oxygen condition: hypoxia 48 h (1% O2) + reoxygenation 24 h; 1000 nM
Where a name gives a salt, the structure may show the parent alone.
assay readout: relative cell viability

INSERT INTO measurements (molecule, assay_readout, reading) VALUES
  ('C#Cc1cccc(Nc2ncnc3cc(OCCOC)c(OCCOC)cc23)c1 [Erlotinib HCl]', 'relative cell viability', 105),
  ('CCCN[C@H]1CCc2nc(N)sc2C1 [Pramipexole dihydrochloride monohydrate]', 'relative cell viability', 99.8),
  ('COc1cc([C@@H]2c3cc4c(cc3[C@@H](O[C@@H]3O[C@@H]5CO[C@@H](C)O[C@H]5[C@H](O)[C@H]3O)[C@H]3COC(=O)[C@H]23)OCO4)cc(OC)c1O [Etoposide]', 'relative cell viability', 46.6),
  ('NS(=O)(=O)c1cc2c(cc1C(F)(F)F)NC(Cc1ccccc1)NS2(=O)=O (configuration not stated) [Bendroflumethiazide]', 'relative cell viability', 101),
  ('C[N+](C)(C)CC(O)CC(=O)[O-] (racemic) [DL-Carnitine hydrochloride]', 'relative cell viability', 97.2);

Challenge: What value of relative cell viability has been recorded for this entry: CC(C)NCC(O)COc1cccc2ccccc12 (configuration not stated) [Propranolol HCl]
Response given: 103

Challenge: What value of relative cell viability has been recorded for this entry: CC[C@H](C)C(=O)O[C@H]1C[C@H](O)C=C2C=C[C@H](C)[C@H](CC[C@@H](O)C[C@@H](O)CC(=O)O)[C@H]21 [Pravastatin sodium]
Response given: 84.7

----------
system: HL-1; test: relative cell viability (CellTiter-Glo) vs DMSO control (% of DMSO control); higher = more viable cells; details: oxygen condition: normoxia 72 h; 5000 nM
Counter-ions that a name gives are not always drawn.
# relative cell viability per record follows
// no unit string in output, number only

Challenge: Give relative cell viability (HL-1) of the following compound: OCC(CO)N[C@H]1C[C@](O)(CO)[C@@H](O)[C@H](O)[C@H]1O
Response given: 115

Challenge: Give relative cell viability (HL-1) of the following compound: OCCOCCN1CCN(C(c2ccccc2)c2ccc(Cl)cc2)CC1 (centres undefined) [Hydroxyzine 2HCl]
Response given: 109

Challenge: Give relative cell viability (HL-1) of the following compound: COC(=O)CCc1ccc(OCC(O)CNC(C)C)cc1 (centres undefined) [Esmolol HCl]
Response given: 112

Challenge: Give relative cell viability (HL-1) of the following compound: NC(=O)c1ncn([C@@H]2O[C@H](CO)[C@@H](O)[C@H]2O)c1O
Response given: 110

Origin of the recorded values: the supplement of paper PMC8371130
